Experimental system: human recombinant serotonin (5-Hydroxytryptamine) 5-HT2C receptor (Homo sapiens, UniProt P28335)
Construct: expressed in transfected cells; host or cells: CHO-K1 cells
Sequence (P28335 33-458): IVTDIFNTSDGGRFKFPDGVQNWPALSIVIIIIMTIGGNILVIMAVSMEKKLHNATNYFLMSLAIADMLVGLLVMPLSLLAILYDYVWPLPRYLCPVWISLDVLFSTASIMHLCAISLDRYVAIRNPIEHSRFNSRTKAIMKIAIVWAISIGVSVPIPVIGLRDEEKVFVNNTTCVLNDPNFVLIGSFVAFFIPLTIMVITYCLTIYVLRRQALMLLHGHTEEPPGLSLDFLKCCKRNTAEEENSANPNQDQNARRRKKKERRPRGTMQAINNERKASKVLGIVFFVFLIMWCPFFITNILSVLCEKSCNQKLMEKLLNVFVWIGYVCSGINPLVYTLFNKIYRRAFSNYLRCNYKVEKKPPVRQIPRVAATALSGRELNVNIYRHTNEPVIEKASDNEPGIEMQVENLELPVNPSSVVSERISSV
Method: Serotonin 5-HT2C radioligand binding ([3H]Mesulergine)
Study conditions: 1 h; read-out: Percent Inhibition of ligand binding Serotonin (1 μM ligand concentration) 5-HT2C
Result type: inhibition at 1 µM (%)

> print(dat)
                                    compound         result.type  reported.measurement
 1  CN1CCc2c(n(CC(=O)N3CCCCC3)c3ccc(Cl)cc23)C1  inhibition at 1 µM                    30
 2  C/C(=C\n1c2c(c3cc(Cl)ccc31)CCN(C)C2C)c1ccc(F)c(F)c1 (stereo not drawn)  inhibition at 1 µM                    93
 3  C/C(=C\n1c2c(c3cc(C)ccc31)CCN(C)C2c1ccccc1)c1ccc(Cl)cc1 (stereo not drawn)  inhibition at 1 µM                    98
 4  Cc1ccc2c(c1)c1c(n2CCc2ccc(C(F)(F)F)nc2)CN(C)CC1  inhibition at 1 µM                    39
 5  C/C(=C/n1c2c(c3cc(Cl)ccc31)CCN(C)C2C)c1ccccc1F (stereo not drawn)  inhibition at 1 µM                    95
 6  CN1CCc2c(n(CC(O)c3ccccc3)c3ccc(Cl)cc23)C1 (stereo not drawn)  inhibition at 1 µM                    81
 7  COc1ccc(/C(C)=C/n2c3c(c4cc(Cl)ccc42)CCN(C)C3)cc1F  inhibition at 1 µM                   102
 8  CN1CCc2c(n(CC(=O)N3CCCC3)c3ccc(Cl)cc23)C1  inhibition at 1 µM                    12
 9  CCC1c2c(c3cc(C)ccc3n2/C=C(\C)c2ccc(Cl)cc2Cl)CCN1C (stereo not drawn)  inhibition at 1 µM                    98
10  Cc1ccc(CCn2c3c(c4cc(Cl)ccc42)CCN(C)C3C)cn1 (stereo not drawn)  inhibition at 1 µM                    79
11  Cc1ccc(CCCn2c3c(c4cc(Cl)ccc42)CCN(C)C3)cn1  inhibition at 1 µM                    -3
12  C/C(=C\n1c2c(c3cc(C)ccc31)CCN(C)C2)c1ccc(Cl)cc1  inhibition at 1 µM                    99
13  C/C(=C\n1c2c(c3cc(C)ccc31)CCN(C)C2C)c1ccccc1F (stereo not drawn)  inhibition at 1 µM                    96
14  CC(C)CCN(C)C(=O)Cn1c2c(c3cc(Cl)ccc31)CCN(C)C2  inhibition at 1 µM                    20
15  C/C(=C\n1c2c(c3cc(C)ccc31)CCN(C)C2C)c1ccc(Cl)cc1 (stereo not drawn)  inhibition at 1 µM                    99
16  CCC1c2c(c3cc(Cl)ccc3n2CC(C)(O)c2ccc(F)cc2)CCN1C (stereo not drawn)  inhibition at 1 µM                    77
17  COc1ccc(/C(C)=C/n2c3c(c4cc(C)ccc42)CCN(C)C3)cc1F  inhibition at 1 µM                   102
18  CCC1c2c(c3cc(Cl)ccc3n2/C=C(\C)c2ccc(Cl)c(Cl)c2)CCN1C (stereo not drawn)  inhibition at 1 µM                    85
19  Cc1ccc2c(c1)c1c(n2C(=O)Cc2ccc(Cl)cc2)C(c2ccccc2)N(C)CC1 (stereo not drawn)  inhibition at 1 µM                    96
20  Cc1ccc2c(c1)c1c(n2CC(O)c2ccccc2F)CN(C)CC1 (stereo not drawn)  inhibition at 1 µM                     5
21  CCC1c2c(c3cc(Cl)ccc3n2C(=O)Cc2ccc(F)cc2)CCN1C (stereo not drawn)  inhibition at 1 µM                    92
22  COc1ccc(C(O)Cn2c3c(c4cc(C)ccc42)CCN(C)C3)cc1OC (stereo not drawn)  inhibition at 1 µM                    48
23  C/C(=C\n1c2c(c3cc(C)ccc31)CCN(C)C2)c1ccc(F)cc1  inhibition at 1 µM                   104
24  COc1ccc(C#Cn2c3c(c4cc(Cl)ccc42)CCN(C)C3)cc1F  inhibition at 1 µM                    95
25  CCC1c2c(c3cc(C)ccc3n2C#Cc2ccc(Cl)cc2)CCN1C (stereo not drawn)  inhibition at 1 µM                   101
26  C/C(=C/n1c2c(c3cc(C)ccc31)CCN(C)C2C)c1ccc(Cl)cc1Cl (stereo not drawn)  inhibition at 1 µM                    91
27  CCC1c2c(c3cc(Cl)ccc3n2C#Cc2ccc(F)cc2)CCN1C (stereo not drawn)  inhibition at 1 µM                   107
28  CCC1c2c(c3cc(Cl)ccc3n2/C=C(\C)c2cccnc2)CCN1C (stereo not drawn)  inhibition at 1 µM                    60
29  C/C(=C\n1c2c(c3cc(Cl)ccc31)CCN(C)C2C)c1ccccc1F (stereo not drawn)  inhibition at 1 µM                    96
30  CC1c2c(c3cc(Cl)ccc3n2C#Cc2ccc(F)cc2)CCN1C (stereo not drawn)  inhibition at 1 µM                   101
31  CCC1c2c(c3cc(C)ccc3n2/C=C(\C)c2ccc(Cl)cc2)CCN1C (stereo not drawn)  inhibition at 1 µM                   103
32  Cc1ccc2c(c1)c1c(n2C(=O)Cc2ccc(Cl)cc2)CN(C)CC1  inhibition at 1 µM                    90
33  CN1CCc2c(n(CC(=O)Nc3ccc(F)cc3)c3ccc(Cl)cc23)C1  inhibition at 1 µM                    15
34  Cc1ccc2c(c1)c1c(n2CC(O)c2ccccc2)CN(C)CC1 (stereo not drawn)  inhibition at 1 µM                    85
35  CN1CCc2c(n(CCc3ccc(F)cc3)c3ccc(Cl)cc23)C1  inhibition at 1 µM                    90
36    CN1CCc2c(n(CCN3CCCCC3)c3ccc(Cl)cc23)C1  inhibition at 1 µM                    37
